# test-method-notes: stimulators of insulin release from INS-1E, primary screen, cell-based, 5 mM glucose, NPC library (AID 1117329); further: reference of the scale not given here
# test-settings: rat INS-1E insulin secretion, at 10 µM, hits give high values

{"line-notation": "CS(=O)(=O)c1ccc([C@@H](O)[C@@H](CF)NC(=O)C(Cl)Cl)cc1", "insulin secretion stimulation, %": 1.8}
{"line-notation": "O=[N+]([O-])c1cncn1CCN1CCOCC1", "insulin secretion stimulation, %": 0.4}
{"line-notation": "O=C(O)c1cc(-c2ccccc2)nc2ccccc12", "insulin secretion stimulation, %": -1.6}
{"line-notation": "Cc1cccc(C)c1NC(=O)c1ccccc1C(=O)O", "insulin secretion stimulation, %": -0.4}
{"line-notation": "COc1cc(C(=O)NCCCCCC(=O)O)cc(OC)c1OC", "insulin secretion stimulation, %": 0.5}
{"line-notation": "CC(=O)N[C@H]1[C@H]([C@H](O)[C@H](O)CO)OC(C(=O)O)=C[C@@H]1N=C(N)N", "insulin secretion stimulation, %": -2.6}
{"line-notation": "CC[C@]1(O)C[C@H]2CN(CCc3c([nH]c4ccccc34)[C@@](C(=O)OC)(c3cc4c(cc3OC)N(C=O)[C@H]3[C@@](O)(C(=O)OC)[C@H](OC(C)=O)[C@]5(CC)C=CCN6CC[C@]43[C@@H]65)C2)C1", "insulin secretion stimulation, %": -1.1}
{"line-notation": "C/C(=N\\O)[C@@H](C)NCC(C)(C)CN[C@H](C)/C(C)=N/O", "insulin secretion stimulation, %": 1.9}
{"line-notation": "CN(C)C(=N)N=C(N)N", "insulin secretion stimulation, %": -2.3}
{"line-notation": "CN(C)C(=O)C(CCN1CCC(O)(c2ccc(Cl)cc2)CC1)(c1ccccc1)c1ccccc1", "insulin secretion stimulation, %": 1.9}

---

# target-or-system: Single-stranded DNA-binding protein (Escherichia coli (strain K12)) (UniProt P0AGE0)
# test-method-notes: E. coli SSB displacement from DNA, counter-screen for HCV NS3 helicase inhibitor project, biochemical, fluorescence polarization, NIH Clinical Collection (AID 743271)
# test-settings: hits give high values, concentration not given here

{"compound": "CCCC(CCC)C(=O)O", "inhibition / %": -1.24}
{"compound": "CC1(C)SC2C(NC(=O)COc3ccccc3)C(=O)N2C1C(=O)O (centres undefined)", "inhibition / %": -5.05}
{"compound": "CN/C(=C\\[N+](=O)[O-])NCCSCc1ccc(CN(C)C)o1", "inhibition / %": 6.39}
{"compound": "COc1c2occc2cc2ccc(=O)oc12", "inhibition / %": -5.05}
{"compound": "CC(CCc1ccccc1)NCC(O)c1ccc(O)c(C(N)=O)c1 (centres undefined)", "inhibition / %": -5.05}
{"compound": "CCCC(=O)Nc1ccc(OCC(O)CNC(C)C)c(C(C)=O)c1 (centres undefined)", "inhibition / %": -5.82}
{"compound": "Nc1ncnc2c1ncn2[C@@H]1O[C@H](CO)[C@@H](O)[C@@H]1O", "inhibition / %": -1.24}
{"compound": "CN(C)c1nc(N(C)C)nc(N(C)C)n1", "inhibition / %": 1.81}
{"compound": "CC(=O)OCC(=O)[C@@]1(O)CC[C@H]2[C@@H]3CCC4=CC(=O)CC[C@]4(C)[C@H]3[C@@H](O)C[C@@]21C", "inhibition / %": 1.81}
{"compound": "CC1(C)S[C@@H]2[C@H](NC(=O)[C@H](N)c3ccc(O)cc3)C(=O)N2[C@H]1C(=O)O", "inhibition / %": 7.91}
{"compound": "O=[N+]([O-])c1cccc2cn[nH]c12", "inhibition / %": -2.76}
{"compound": "O=C(O)COCCN1CCN(C(c2ccccc2)c2ccc(Cl)cc2)CC1 (centres undefined)", "inhibition / %": -1.24}
{"compound": "CS(=O)(=O)c1ccc(C2=C(c3ccccc3)C(=O)OC2)cc1", "inhibition / %": 1.44}
{"compound": "OC[C@H]1O[C@@H](Oc2cc(O)cc(/C=C/c3ccc(O)cc3)c2)[C@H](O)[C@@H](O)[C@@H]1O", "inhibition / %": 10.7}
